Origin of measurements: paper PMC9332313

Target: T1, SH2 domain of Crkl protein (residues 1-111), H33A variant (UniProt P46109 1-111, H33A)
T1 construct: Crkl adaptor protein, SH2 domain, residues 1-111, His33 replaced by alanine; Site-directed mutant of m1 (QuikChange); source: E. coli BL21 (DE3), purified (HisTrap nickel column, desalting); not shown: His tag, N-terminal, kept
T1 sequence (P46109 1-111 H33A): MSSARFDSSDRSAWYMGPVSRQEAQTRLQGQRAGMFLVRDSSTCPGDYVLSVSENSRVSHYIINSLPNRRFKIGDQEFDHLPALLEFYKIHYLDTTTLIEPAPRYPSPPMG
Assay: stopped-flow fluorescence kinetics (FRET); dansyl-Pax112-123 constant at 2 μM mixed with Crkl-SH2 2 to 10 μM (pseudo-first-order, kon); koff by displacement of the preincubated 2 µM complex with excess non-dansylated Pax112-123 (30 μM); 283 K; 50 mM TrisHCl pH 9.0, 0.5 M NaCl
Conditions: both partners purified
Square brackets hold non-standard residues; d marks the D form. Ends that are not written are not given here. * marks the point of attachment. pY = N[C@@H](Cc1ccc(OP(=O)(O)O)cc1)C(=O)O; Dansyl = CN(C)c1cccc2c(S(=O)(=O)*)cccc12
attribute measured: pKd
The quantity pKd is defined as the negative base-10 logarithm of the molar concentration.

// query pKd value for entry Dansyl-GEEEHV[pY]SFPNK (The dansyl group is the FRET acceptor of Trp14 of the SH2 domain; source: synthetic peptide, bought: GenScript) [dansylated Pax_(112–123) peptide (Dans-GEEEHV-pY-SFPNK)]
5.38
